experiment: Distribution coefficient (log D) was determined at pH 7.2
QUANTITY: logD

Query (compound): `O=[N+]([O-])c1cccc(O)c1` ; field requested: logD
1.97

###

assay: physchem; conditions: octanol/water, pH 7.2
Listing of entries alongside the reported logD.
Give a plain numeric answer without units written out.

Solved cases below.
{"columns": ["MOLECULE", "QUANTITY", "READOUT_VALUE"],
 "data": [
  ["Cc1cc(C)c(O)c(C)c1", "logD", 2.86],
  ["Oc1ccc(Cl)cc1Cl", "logD", 3.06],
  ["CC(C)Cc1ccccc1O", "logD", 3.27],
  ["CCCCCCCC(=O)O", "logD", 0.62],
  ["Oc1cc(Cl)c(Cl)cc1Cl", "logD", 3.31]
]}

Query (molecule): `CC(C)c1ccccc1O` ; field requested: logD
2.88

Query (molecule): `O=[N+]([O-])c1ccc(O)cc1` ; field requested: logD
1.61

Query (molecule): O=Cc1ccc(O)cc1 [4-HYDROXYBENZALDEHYDE] ; field requested: logD
1.22

Query (molecule): CCCCCCCCCCCC(=O)O [DODECANOATE] ; field requested: logD
2.62

Query (molecule): `Cc1ccc(O)cc1` ; field requested: logD
1.94

Query (molecule): CCCCCCCCC(=O)O [NONANOATE] ; field requested: logD
1.12

Query (molecule): `CCCCCCCCCC(=O)O` ; field requested: logD
1.62

Query (molecule): `Oc1cccc(O)c1` ; field requested: logD
0.78

###

test: physchem; conditions: octanol/water
Listing of entries alongside the reported logP.

{"columns": ["COMPOUND", "READOUT_VALUE"],
 "data": [
  ["Oc1cc(Cl)c(Cl)cc1Cl", 3.72],
  ["CCCCCCCCC(=O)O [NONANOATE]", 3.42],
  ["Cc1cc(C)c(O)c(C)c1", 2.86],
  ["Oc1ccc(Cl)cc1Cl", 3.14],
  ["COc1ccccc1O", 1.33],
  ["CCCCCCCCCCCCC(=O)O [TRIDECANOATE]", 5.42]
]}

Query (compound): `Oc1cccc(O)c1` ; field requested: logP
0.78

Query (compound): `Nc1ccccc1O` ; field requested: logP
0.57

Query (compound): `CCc1ccc(O)cc1` ; field requested: logP
2.26

Query (compound): `CC(C)c1ccccc1O` ; field requested: logP
2.88

Query (compound): `Oc1ccccc1-c1ccccc1` ; field requested: logP
3.09

Query (compound): `Cc1cccc(O)c1` ; field requested: logP
1.97

Query (compound): CCCCCCC(=O)O [HEPTANOATE] ; field requested: logP
2.42

Query (compound): `Nc1cccc(O)c1` ; field requested: logP
0.16

Query (compound): `Oc1c(Cl)cc(Cl)c(Cl)c1Cl` ; field requested: logP
4.1

Query (compound): `Oc1ccc(-c2ccccc2)cc1` ; field requested: logP
3.2

Query (compound): `CC(C)Cc1ccc(O)cc1` ; field requested: logP
3.4

Query (compound): COC(=O)c1ccccc1O [METHYL SALICYLATE] ; field requested: logP
2.46

###

assay: Dissociation constant was determined spectrophotometrically; Experiment 1; type: physicochemical
QUANTITY: pKa
Give a plain numeric answer without units written out.

Query (compound): O=C(O)c1ccc(O)cc1 [PARABEN] ; field requested: pKa
9.4
